Cited source: paper PMC5540273

system: SGK; conditions: concentration: 1 μM, replicates: in singlicate; n = 1;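 also: KINOMEscan kinase panel screen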
Quick rule for you: %Inh under 5% gets fulfilled, anything else gets not fulfilled.

molecule: COc1ccc(CNC(=O)NC2CCN(c3ccnc(Nc4ccc(F)cc4)n3)C2)cc1 (stereo not drawn)
assignedClass: fulfilled
--
molecule: Nc1nc(N)c2nc(-c3ccccc3)[nH]c2n1
assignedClass: not fulfilled
--
molecule: Nc1ncnc2c1ncn2-c1cccc2ccccc12
assignedClass: not fulfilled
--
molecule: COc1cccc(-n2cnc3c(N)ncnc32)c1
assignedClass: not fulfilled
--
molecule: COC(=O)c1c(-c2ccccc2)c2cc(C)ccc2c(=O)n1Cc1ccccc1
assignedClass: fulfilled
--
molecule: COc1cc(Nc2nccc(N3CCC(NC(=O)C4COc5ccccc5O4)C3)n2)cc(OC)c1OC (stereo not drawn)
assignedClass: not fulfilled
--
molecule: COc1cc2ncn(-c3cc(OCc4ccc(S(C)(=O)=O)cc4)c(C(N)=O)s3)c2cc1OC
assignedClass: not fulfilled
--
molecule: CCC(=O)c1c(-c2ccccc2)c2cc(Cl)ccc2c(=O)n1Cc1cc(S(C)(=O)=O)n(CC(N)=O)n1
assignedClass: fulfilled
--
molecule: COc1cc2ncn(-c3cc(OCc4ccncc4Br)c(C(N)=O)s3)c2cc1OC
assignedClass: fulfilled
--
molecule: Cc1ccc(Oc2ccc(Nc3ncnc4cc[nH]c34)cc2C)cn1
assignedClass: not fulfilled
--
molecule: Fc1cccc(CSc2nnc(-c3ccc4c(c3)CCO4)o2)c1
assignedClass: not fulfilled
--
molecule: O=C(NCCNc1ccnc(Nc2ccc(F)cc2)n1)Nc1ccc2c(c1)OCO2
assignedClass: not fulfilled
--
molecule: Nc1ncnc2c1ncn2-c1ccc(Cl)cc1
assignedClass: fulfilled
--
molecule: Cc1ccccc1COc1cc(-n2cnc3cc(Cl)ccc32)sc1C(N)=O
assignedClass: fulfilled
--
molecule: COc1cccc(C2=C(N(C)c3ccccc3)C(=O)NC2=O)c1
assignedClass: fulfilled
--
molecule: Cc1ccc(-c2ccc3c(ccc4sc5c(c43)NC[C@@H](C)N=C5N(C)C)n2)cn1
assignedClass: fulfilled
--
molecule: COc1ccc(-n2cnc3c(N)ncnc32)cc1
assignedClass: fulfilled
--
molecule: Cc1cccc(-c2nc(Nc3ccc4c(cnn4C)c3)c3ccccc3n2)n1
assignedClass: fulfilled
--
molecule: CC(C)(C)c1ccc(C(=O)Nc2cn3cc(-c4ccccc4)ccc3n2)cc1
assignedClass: fulfilled
--
molecule: Cl.c1ccc(Cn2cnc3cc(Nc4ncnc5ccccc45)ccc32)cc1
assignedClass: fulfilled
--
molecule: Cc1nn2c(=O)cc(N3CCOCC3)nc2n1Cc1cccc(Cl)c1Cl
assignedClass: fulfilled
--
molecule: COC(=O)c1c(-c2ccccc2)c2cc(Br)ccc2c(=O)n1Cc1ccc(S(C)(=O)=O)cc1
assignedClass: not fulfilled
--
molecule: COc1cc(Nc2ccnc3ccc(C(F)(F)F)cc23)cc(OC)c1OC
assignedClass: not fulfilled
--
molecule: Cl.NS(=O)(=O)c1cccc(Nc2cc(-c3ccc(F)cc3)n[nH]2)c1
assignedClass: not fulfilled
--
molecule: CCC(=O)c1c(-c2ccccc2)c2cc(Cl)ccc2c(=O)n1Cc1cc(S(C)(=O)=O)n(CC(F)F)n1
assignedClass: fulfilled
--
molecule: Nc1n[nH]c2ncc(-c3ccccc3)cc12
assignedClass: not fulfilled
--
molecule: Nc1ncnc2c1ncn2-c1cccc(F)c1
assignedClass: not fulfilled
--
molecule: CCn1c(-c2ccoc2)nc2cnccc21
assignedClass: not fulfilled
--
molecule: COC(=O)c1c(-c2ccccc2)c2cc(Br)ccc2c(=O)n1Cc1ccc(NC(=O)CCC(=O)O)cc1
assignedClass: not fulfilled
--
molecule: Cc1cccc(-c2cc(-c3c[nH]nc3-c3ccccn3)ccn2)c1
assignedClass: fulfilled
--
molecule: COc1cc2nccc(Nc3ccc(OCc4ccc(NC(C)=O)cc4)cc3)c2cc1OC.Cl
assignedClass: fulfilled
--
molecule: CN1C(=O)C(Nc2cc(Cl)c(O)c(Cl)c2)=C(c2ccc(Cl)cc2)C1=O
assignedClass: fulfilled
--
molecule: COc1cc2ncn(-c3cc(OCc4ccncc4)c(C(N)=O)s3)c2cc1OC
assignedClass: fulfilled
--
molecule: Nc1nccc2scc(-c3ccc4c(c3)CCN4C(=O)Cc3ccccc3)c12
assignedClass: fulfilled
--
molecule: CCS(=O)(=O)c1ccc(OC)c(Nc2ncc(-c3ccc(F)cc3)o2)c1.Cl
assignedClass: fulfilled
--
molecule: COc1cc(OC)cc(-c2cc3cnc(N)nc3nc2NC(=O)NC(C)(C)C)c1
assignedClass: fulfilled
